The following molecules are listed with their measured CC50 at 24 h values.
# ASSAY_TEXT: in vitro
# MEASUREMENT_SETUP: rat, gh3-tre-luc cells, AC50 (uM) modified / 1000
VALUE_TYPE: CC50 at 24 h

[
  {
    "MOLECULE": "COc1cc2c(cc1O)CCN[C@]21CS[C@@H]2c3c(OC(C)=O)c(C)c4c(c3[C@H](COC1=O)N1[C@@H]2[C@H]2c3c(cc(C)c(OC)c3O)C[C@@H]([C@@H]1O)N2C)OCO4",
    "TEST_VALUE": "0.00433 µM"
  },
  {
    "MOLECULE": "CC[C@H]1C[C@H]2[C@@H]3CCC4=CC(=O)CC[C@@H]4[C@H]3CC[C@]2(C)[C@H]1O [Oxendolone]",
    "TEST_VALUE": "> 50 µM"
  },
  {
    "MOLECULE": "BrCc1cccc(Oc2ccccc2)c1",
    "TEST_VALUE": "> 90 µM"
  },
  {
    "MOLECULE": "N#Cc1cccnc1",
    "TEST_VALUE": "> 90 µM"
  },
  {
    "MOLECULE": "O=C(O)c1ccccc1C(=O)OCc1ccccc1 [Monobenzyl phthalate]",
    "TEST_VALUE": "> 90 µM"
  },
  {
    "MOLECULE": "CC1=C2[C@@H]([C@H](C)CC[C@H]2/C=C(\\C)C(=O)O)[C@H](O)C1 [Hydroxyvalerenic acid]",
    "TEST_VALUE": "> 90 µM"
  },
  {
    "MOLECULE": "COc1ccc(C(=O)/C(Br)=C\\C(=O)O)cc1",
    "TEST_VALUE": "44 µM"
  },
  {
    "MOLECULE": "c1ccc2ncccc2c1",
    "TEST_VALUE": "> 90 µM"
  },
  {
    "MOLECULE": "N[C@H](C(=O)O)[C@H](O)c1ccc(O)c(O)c1",
    "TEST_VALUE": "> 50 µM"
  }
]

###

# Test system: GH3-TRE-Luc cell line
# MEASUREMENT_SETUP: read-out: AC50 (uM) modified / 1000; Tox21_110001=Tox21_302985; viability, 1 nM T3 present, 24 h

[
  {
    "SMILES_CODE": "Nc1ncn([C@@H]2O[C@H](CO)[C@@H](O)[C@H]2O)c(=O)n1",
    "CC50 / µM": 19.3
  }
]

###

# ASSAY_TEXT: in vitro
# MEASUREMENT_SETUP: rat, gh3-tre-luc cells, AC50 (uM) modified / 1000, Tox21_110001=Tox21_300968; viability, 1 nM T3 present, 24 h
VALUE_TYPE: CC50 at 24 h

[
  {
    "MOLECULE": "CNC(=O)CSP(=O)(OC)OC [Omethoate]",
    "TEST_VALUE": "> 90 µM"
  }
]

###

# ASSAY_TEXT: in vitro
# MEASUREMENT_SETUP: rat, gh3-tre-luc cells, AC50 (uM) modified / 1000
Structures can show the parent of a compound that is named as a salt.
VALUE_TYPE: CC50 at 24 h

[
  {
    "COMPOUND": "CC1(O)CCC(C(C)(C)O)CC1 (centres unmarked)",
    "TEST_VALUE": "> 50 µM"
  },
  {
    "COMPOUND": "Nc1c(S(=O)(=O)O)cc(Br)c2c1C(=O)c1ccccc1C2=O [Bromamine acid sodium salt]",
    "TEST_VALUE": "38.3 µM"
  },
  {
    "COMPOUND": "Cn1cc(C(=O)[C@@H]2CCc3nc[nH]c3C2)c2ccccc21 [Ramosetron hydrochloride]",
    "TEST_VALUE": "> 50 µM"
  },
  {
    "COMPOUND": "NS(=O)(=O)c1cc(C2(O)NC(=O)c3ccccc32)ccc1Cl (centres unmarked)",
    "TEST_VALUE": "> 20 µM"
  },
  {
    "COMPOUND": "CCCCNc1ccccc1",
    "TEST_VALUE": "> 90 µM"
  }
]

###

# System: GH3-TRE-Luc cell line
# MEASUREMENT_SETUP: read-out: AC50 (uM) modified / 1000; Tox21_110001=Tox21_303202; viability, 1 nM T3 present, 24 h

[
  {
    "SMILES_CODE": "CC(C)Nc1ccc(Nc2ccccc2)cc1",
    "TARGET": "GH3-TRE-Luc cell line",
    "CC50": "33.4 µM"
  }
]

###

# ASSAY_TEXT: in vitro
# MEASUREMENT_SETUP: rat, gh3-tre-luc cells, AC50 (uM) modified / 1000, Tox21_110001=Tox21_111794; viability, 1 nM T3 present, 24 h

[
  {
    "COMPOUND": "CC(Cc1ccccc1)NC=O (stereo not shown)",
    "CC50 at 24 h": "> 50 µM"
  }
]

###

# ASSAY_TEXT: in vitro
# MEASUREMENT_SETUP: rat, gh3-tre-luc cells, AC50 (uM) modified / 1000, Tox21_110001=Tox21_111806; viability, 1 nM T3 present, 24 h
Counter-ions that a name gives are not always drawn.
VALUE_TYPE: CC50 at 24 h

[
  {
    "COMPOUND": "C[C@@H](Cc1ccccc1)NCc1ccccc1Cl [Clobenzorex hydrochloride]",
    "TEST_VALUE": "> 50 µM"
  }
]

###

# ASSAY_TEXT: in vitro
# MEASUREMENT_SETUP: rat, gh3-tre-luc cells, AC50 (uM) modified / 1000, Tox21_110001=Tox21_200022; viability, 1 nM T3 present, 24 h
VALUE_TYPE: CC50 at 24 h

[
  {
    "COMPOUND": "O=[N+]([O-])c1cccc(O)c1 [3-Nitrophenol]",
    "TEST_VALUE": "> 90 µM"
  }
]

###

# ASSAY_TEXT: in vitro
# MEASUREMENT_SETUP: rat, gh3-tre-luc cells, AC50 (uM) modified / 1000
Where a name gives a salt, the structure may show the parent alone.
The following compounds are listed with their measured CC50 at 24 h values.

[
  {
    "COMPOUND": "CC1=C(C(=O)OCCN(Cc2ccccc2)c2ccccc2)C(c2cccc([N+](=O)[O-])c2)C(P2(=O)OCC(C)(C)CO2)=C(C)N1 (stereo not shown)",
    "CC50 at 24 h": "23.8 µM"
  },
  {
    "COMPOUND": "NC(=O)NNC(N)=O",
    "CC50 at 24 h": "> 90 µM"
  },
  {
    "COMPOUND": "Oc1ccccc1Cc1ccccc1O",
    "CC50 at 24 h": "> 90 µM"
  },
  {
    "COMPOUND": "ON=C1CCCC1",
    "CC50 at 24 h": "> 90 µM"
  },
  {
    "COMPOUND": "CC(=O)O[C@@H]1C(=O)O[C@H]2[C@@H]1OC(=O)[C@@H]2OC(C)=O",
    "CC50 at 24 h": "> 50 µM"
  },
  {
    "COMPOUND": "O=C1C(Cl)C(CCl)CN1c1cccc(C(F)(F)F)c1 (stereo not shown)",
    "CC50 at 24 h": "> 90 µM"
  },
  {
    "COMPOUND": "CCCCC(C=O)CC (stereo not shown)",
    "CC50 at 24 h": "> 90 µM"
  },
  {
    "COMPOUND": "CC1(C)[C@H](C(=O)O)N2C(=O)C[C@H]2S1(=O)=O",
    "CC50 at 24 h": "> 50 µM"
  },
  {
    "COMPOUND": "C[C@H](N)C(=O)c1ccccc1 [(-)- (S)-Cathinone hydrochloride]",
    "CC50 at 24 h": "> 50 µM"
  },
  {
    "COMPOUND": "COC(=O)OC [Dimethyl carbonate]",
    "CC50 at 24 h": "> 90 µM"
  },
  {
    "COMPOUND": "O=C(O)CCCl",
    "CC50 at 24 h": "> 90 µM"
  },
  {
    "COMPOUND": "O=C(O)CNC(=O)c1ccccc1I",
    "CC50 at 24 h": "> 50 µM"
  },
  {
    "COMPOUND": "CC(=O)CCc1ccc(O)cc1 [4-(4-Hydroxyphenyl)butan-2-one]",
    "CC50 at 24 h": "> 90 µM"
  },
  {
    "COMPOUND": "CCC(C)(C)c1cc(-n2nc3ccccc3n2)c(O)c(C(C)(C)CC)c1",
    "CC50 at 24 h": "> 90 µM"
  },
  {
    "COMPOUND": "CCOC(=O)/C=C/c1ccccc1 [Ethyl cinnamate]",
    "CC50 at 24 h": "> 90 µM"
  },
  {
    "COMPOUND": "O=S(=O)(O)Oc1ccc(C(c2ccc(OS(=O)(=O)O)cc2)c2ccccn2)cc1 [Picosulfate sodium]",
    "CC50 at 24 h": "> 50 µM"
  },
  {
    "COMPOUND": "O=C(c1ccccc1)c1cccc(O)c1 [3-Hydroxybenzophenone]",
    "CC50 at 24 h": "> 90 µM"
  },
  {
    "COMPOUND": "Cc1cnc(C)c(C)n1",
    "CC50 at 24 h": "> 100 µM"
  },
  {
    "COMPOUND": "Cc1cccc(C)c1N(CCCc1cccnc1)C(=O)C(C)N (stereo not shown)",
    "CC50 at 24 h": "> 50 µM"
  },
  {
    "COMPOUND": "C=C(C)C(=O)OCC(CC)CCCC (stereo not shown) [2-Ethylhexyl methacrylate]",
    "CC50 at 24 h": "> 90 µM"
  },
  {
    "COMPOUND": "CCCCCCCCS",
    "CC50 at 24 h": "> 90 µM"
  },
  {
    "COMPOUND": "CC(O)CC(C)(C)O (stereo not shown)",
    "CC50 at 24 h": "> 90 µM"
  },
  {
    "COMPOUND": "CCOc1ccc(NC(=O)CC(C)O)cc1 (stereo not shown) [3-Hydroxy-4-butyrophenetidide]",
    "CC50 at 24 h": "> 90 µM"
  },
  {
    "COMPOUND": "Cc1cc(C)c(N)cc1C",
    "CC50 at 24 h": "> 90 µM"
  },
  {
    "COMPOUND": "CC1CC(O)CC(C)(C)C1 (stereo not shown)",
    "CC50 at 24 h": "> 90 µM"
  },
  {
    "COMPOUND": "CC(C)(C)c1ccc(N)cc1",
    "CC50 at 24 h": "> 90 µM"
  },
  {
    "COMPOUND": "CCOC(=O)CC(=O)c1cc(F)c(Cl)nc1Cl",
    "CC50 at 24 h": "> 90 µM"
  },
  {
    "COMPOUND": "CCC(C(=O)OCCOCCN(CC)CC)c1ccccc1 (stereo not shown) [Butamirate citrate]",
    "CC50 at 24 h": "> 50 µM"
  },
  {
    "COMPOUND": "CCc1cccc(CC)c1N",
    "CC50 at 24 h": "> 90 µM"
  },
  {
    "COMPOUND": "CCCN(CCOc1c(Cl)cc(Cl)cc1Cl)C(=O)n1ccnc1",
    "CC50 at 24 h": "81.4 µM"
  },
  {
    "COMPOUND": "Cc1cc(C)nc(Nc2ccccc2)n1",
    "CC50 at 24 h": "> 90 µM"
  },
  {
    "COMPOUND": "O=C(O)Cc1ccccc1Oc1ccc(Cl)cc1Cl",
    "CC50 at 24 h": "> 50 µM"
  },
  {
    "COMPOUND": "CC(C)CCOC(=O)c1ccccc1 [Isopentyl benzoate]",
    "CC50 at 24 h": "> 90 µM"
  },
  {
    "COMPOUND": "C#C[C@]1(OC(C)=O)CC[C@H]2[C@@H]3CCC4=CC(=O)CC[C@@H]4[C@H]3CC[C@@]21C [Norethindrone acetate]",
    "CC50 at 24 h": "> 50 µM"
  },
  {
    "COMPOUND": "CC(=O)NO [Acetohydroxamic acid]",
    "CC50 at 24 h": "> 50 µM"
  },
  {
    "COMPOUND": "CC(/C=C/C=C(\\C)C(=O)O[C@@H]1O[C@H](CO[C@@H]2O[C@H](CO)[C@@H](O)[C@H](O)[C@H]2O)[C@@H](O)[C@H](O)[C@H]1O)=C\\C=C\\C=C(C)\\C=C\\C=C(/C)C(=O)O[C@@H]1O[C@H](CO[C@@H]2O[C@H](CO)[C@@H](O)[C@H](O)[C@H]2O)[C@@H](O)[C@H](O)[C@H]1O",
    "CC50 at 24 h": "> 50 µM"
  },
  {
    "COMPOUND": "CCCCSCCCC [Dibutyl sulfide]",
    "CC50 at 24 h": "> 90 µM"
  },
  {
    "COMPOUND": "O=C(CCCN1CCN2CCCC2C1)c1ccc(F)cc1 (stereo not shown)",
    "CC50 at 24 h": "> 50 µM"
  },
  {
    "COMPOUND": "C=C(C)C(=O)OCCC[Si](Cl)(Cl)Cl [3-(Trichlorosilyl)propyl methacrylate]",
    "CC50 at 24 h": "> 90 µM"
  },
  {
    "COMPOUND": "CCCCCC(=O)O",
    "CC50 at 24 h": "> 90 µM"
  }
]

meta.source: paper PMC6792352
